Collected cytotoxicity at 70.5 h values appear next to each entry.
Assay: Human HepG2 cell viability assay in 384 well format
Type: toxicity, cell-based
Design: dose 125 nL, time 70.5 hour; concentration not given beside the values
Conditions: HepG2 cells, read-out: Inhibition
Record the value in %, omitting the unit from your answer.

// worked examples, cytotoxicity at 70.5 h included
- compound: "CC(C)(C)C(=O)N1CCN(Cn2nccc2-c2cccnc2)CC1"
  cytotoxicity at 70.5 h [%]: -3.16
- compound: "CC(C)c1nc(C2CCCN(C(=O)c3ccc4c(c3)COC4)C2)no1 (stereo unspecified)"
  cytotoxicity at 70.5 h [%]: 0.421
- compound: "Cc1cc(CN2CC[C@H]3C(=O)N(c4ccsc4)CCO[C@H]3C2)no1"
  cytotoxicity at 70.5 h [%]: -9.15
- compound: "Cc1c[nH]nc1C1CN(Cc2cnn(-c3ccccc3C(=O)O)c2)C1"
  cytotoxicity at 70.5 h [%]: -6.87

Let me know recorded cytotoxicity at 70.5 h for `Cc1ccc(NC2CCN(C(=O)c3sccc3C3CC3)CC2)nn1` , thanks.
-8.46

Let me know recorded cytotoxicity at 70.5 h for `COc1ccccc1C(=O)N(C)Cc1nnc2ccccn12` , thanks.
-14

Let me know recorded cytotoxicity at 70.5 h for CC(C)C(C(=O)NCC1CC1)n1cnc2cc(F)c(F)cc21 (stereo unspecified) , thanks.
-1.42

Let me know recorded cytotoxicity at 70.5 h for O=C(Cc1ccc2c(c1)OCCO2)N1CCCC(n2cccn2)C1 (stereo unspecified) , thanks.
-19.6

Let me know recorded cytotoxicity at 70.5 h for O=S(=O)(c1ccc(F)cc1)N1CCCC(c2nccs2)C1 (stereo unspecified) , thanks.
-2.41

Let me know recorded cytotoxicity at 70.5 h for `CC(C)c1nc(C(=O)NCCn2ccnc2)nn1-c1cccc(F)c1` , thanks.
-14.8

Let me know recorded cytotoxicity at 70.5 h for CC(C(=O)NCc1ccnc(N2CCOCC2)c1)n1cccn1 (stereo unspecified) , thanks.
-10.1

Let me know recorded cytotoxicity at 70.5 h for COC(=O)C(C)NC(=O)CSCc1nc(O)c2cc(C(C)C)sc2n1 (stereo unspecified) , thanks.
6.75

Let me know recorded cytotoxicity at 70.5 h for Cc1cc(C2CCCN(C(=O)COc3cccc(F)c3)C2)n[nH]1 (stereo unspecified) , thanks.
-5.26

Let me know recorded cytotoxicity at 70.5 h for `COC(=O)c1sc2cccc(F)c2c1CNC(=O)C1CC1` , thanks.
1.14

Let me know recorded cytotoxicity at 70.5 h for `Cc1ccccc1COCCOCn1c(C)cc(=O)[nH]c1=O` , thanks.
-4.1

====

Assay: Human HepG2 cell viability assay in 384 well format
Assay type: toxicity, cell-based
Parameters: dose 125 nL, time 70.5 hour; concentration not given beside the values
Conditions: HepG2 cells, read-out: Inhibition
reported.endpoint: cytotoxicity at 70.5 h (%)
Record the value in %, omitting the unit from your answer.

Let me know recorded cytotoxicity at 70.5 h for `CSCCCN1CCC(c2nnc(Cn3ccnc3)n2C2CC2)CC1` , thanks.
-0.0518

Let me know recorded cytotoxicity at 70.5 h for O=C(c1ccccn1)C1CCCN(c2nccc(CCC(F)(F)F)n2)C1 (centres undefined) , thanks.
-13.1

Let me know recorded cytotoxicity at 70.5 h for `CCCn1nc2c(cc1=O)CN(CC(=O)N(C)c1nccs1)CC2` , thanks.
-4.23

Let me know recorded cytotoxicity at 70.5 h for COc1cccc(-c2c[nH]c(C3CCCN3)n2)c1 (centres undefined) , thanks.
-4.68

====

Test: Human HepG2 cell viability assay in 384 well format
Assay type: toxicity, cell-based
Design: dose 125 nL, time 70.5 hour; concentration not given beside the values
Conditions: HepG2 cells, read-out: Inhibition
reported.endpoint: cytotoxicity at 70.5 h (%)
Record the value in %, omitting the unit from your answer.

- molecule: "COc1ccc(-n2ccc(C(=O)N(C)C(C)C3(C)CC3)n2)cc1 (stereo not given)"
  readout.value: 21.1
- molecule: "COCC(=O)N1CCN(c2cc(C)nc(C3CCCN3C(C)=O)c2)CC1 (stereo not given)"
  readout.value: -0.659
- molecule: "CC(C)COCc1cncc2c1CCN(Cc1cnn(C)c1)C2"
  readout.value: -13.8
- molecule: "CCN(CC(=O)N(C)C)C(=O)c1cc(-c2cccc(Cl)c2)no1"
  readout.value: 3.05
- molecule: "Cc1n[nH]c2c1C(c1ccc(O)cc1)SCC(=O)N2 (stereo not given)"
  readout.value: -11

Let me know recorded cytotoxicity at 70.5 h for CCCOC1CCCN(Cc2nc(-c3cccs3)oc2C)C1 (stereo not given) , thanks.
-1.07

Let me know recorded cytotoxicity at 70.5 h for `CO[C@H]1C[C@@H](O)C12CCN(Cc1nc(C(F)(F)F)no1)CC2` , thanks.
-10.9

Let me know recorded cytotoxicity at 70.5 h for CC(O)(CNc1ccc(Cl)c(C#N)n1)c1ccccc1 (stereo not given) , thanks.
13.8

====

Assay: Human HepG2 cell viability assay in 384 well format
Type: toxicity, cell-based
Set-up: dose 125 nL, time 70.5 hour; concentration not given beside the values
Settings: HepG2 cells, read-out: Inhibition
reported.endpoint: cytotoxicity at 70.5 h (%)
Record the value in %, omitting the unit from your answer.

// worked examples, cytotoxicity at 70.5 h included
- molecule.smiles: "O=C(NCc1ccccc1Cn1cncn1)C1CCCC1"
  unit.of.measure: "%"
  cytotoxicity at 70.5 h: -3.85
- molecule.smiles: "CC1=N[C@@]2(CC[C@@H]3CN(CC(C)C)C[C@@H]32)C(=O)N1CC(C)C"
  unit.of.measure: "%"
  cytotoxicity at 70.5 h: -13.7

Please examine the following record next.
Let me know recorded cytotoxicity at 70.5 h for `CC(C)Cc1nc(CN2CCc3onc(-c4cccc(F)c4)c3C2)no1` , thanks.
-2.69

====

Assay: Human HepG2 cell viability assay in 384 well format
Type: toxicity, cell-based
Parameters: dose 125 nL, time 70.5 hour; concentration not given beside the values
Conditions: HepG2 cells, read-out: Inhibition
reported.endpoint: cytotoxicity at 70.5 h (%)
Record the value in %, omitting the unit from your answer.

// worked examples, cytotoxicity at 70.5 h included
- compound: "Cc1csc(NC(=O)[C@@H]2C[C@H]3[C@H](CCN3S(C)(=O)=O)O2)n1"
  unit.of.measure: "%"
  cytotoxicity at 70.5 h: -1.16
- compound: "CC(NC(=O)NCc1cc[nH]n1)c1ccc2c(c1)CCC(=O)N2 (centres undefined)"
  unit.of.measure: "%"
  cytotoxicity at 70.5 h: -19.8
- compound: "CCNc1ncc(C(=O)NC2CCc3ccccc3C2)cn1 (centres undefined)"
  unit.of.measure: "%"
  cytotoxicity at 70.5 h: 54.4
- compound: "Cc1cccc(=O)n1CCC(=O)N1CCC2(CC1)OCCCC2O (centres undefined)"
  unit.of.measure: "%"
  cytotoxicity at 70.5 h: -3.41
- compound: "CCOc1ccc(N(C)S(=O)(=O)c2c[nH]c(C(C)C)n2)cc1"
  unit.of.measure: "%"
  cytotoxicity at 70.5 h: -4.89
- compound: "COc1ccccc1[C@@H]1CN(C(=O)c2csc(C)n2)C[C@H]1C(=O)O"
  unit.of.measure: "%"
  cytotoxicity at 70.5 h: -2.79

Let me know recorded cytotoxicity at 70.5 h for CCNC(c1cccnc1)c1cc(C)cc(C)c1 (centres undefined) , thanks.
2.24

Let me know recorded cytotoxicity at 70.5 h for `Cc1cc(CSc2ccccn2)on1` , thanks.
-3.89

Let me know recorded cytotoxicity at 70.5 h for `COc1c(CNCc2cccc(Cn3cncn3)c2)c(C)nn1C` , thanks.
-0.463

Let me know recorded cytotoxicity at 70.5 h for `CCN(CC)C(=O)[C@@H]1C[C@H](N)CN1C(=O)c1cc2c([nH]c1=O)CCC2` , thanks.
14.4

Let me know recorded cytotoxicity at 70.5 h for Cc1cnc(C(=O)NCC(c2ccc(C)o2)N2CCOCC2)cn1 (centres undefined) , thanks.
10.4

Let me know recorded cytotoxicity at 70.5 h for `O=C(C1CC1)N1CC[C@H]2C(=O)N(c3ccsc3)CCO[C@H]2C1` , thanks.
-11.7

Let me know recorded cytotoxicity at 70.5 h for `CSCC[C@H]1CN2CCC[C@H]2CN1Cc1cn(C)nc1C` , thanks.
-3.69

Let me know recorded cytotoxicity at 70.5 h for `Cc1[nH]ccc1C(=O)Nc1cccc(CN2CCC(CO)CC2)c1` , thanks.
27.9

Let me know recorded cytotoxicity at 70.5 h for `Cc1noc(C)c1C(=O)NCc1ccc(N2CCC(C)CC2)nc1` , thanks.
1.58

====

Assay: Human HepG2 cell viability assay in 384 well format
Type: toxicity, cell-based
Design: dose 125 nL, time 70.5 hour; concentration not given beside the values
Conditions: HepG2 cells, read-out: Inhibition
Collected cytotoxicity at 70.5 h values appear next to each entry.
Write the quantity with the unit trailing the number.

// worked examples, cytotoxicity at 70.5 h included
- molecule: "COc1ccc(CNCc2c(C(C)C)nn(C)c2OC)cn1"
  readout.value: "-0.773%"
- molecule: "CNC(=O)CN1CCC(OCC2CCCO2)CC1 (centres undefined)"
  readout.value: "-8.23%"
- molecule: "CN(C)C(=O)CN1CCC2(CCCN(Cc3ccoc3)C2)C1=O (centres undefined)"
  readout.value: "-13.2%"
- molecule: "Cc1cc(C(=O)N2CCCC(N3CCNC3=O)C2)nn1C(C)(C)C (centres undefined)"
  readout.value: "-0.73%"
- molecule: "CCCC(NC(=O)c1cc(C2CC2)[nH]n1)c1nnc2ccccn12 (centres undefined)"
  readout.value: "-12.1%"
- molecule: "O=C(NC[C@H]1OC[C@@H](NC2CCC(F)(F)CC2)[C@@H]1O)C1CC1"
  readout.value: "-7.04%"
- molecule: "CC(C)n1ncc2c1NC(=O)CC21C(=O)Nc2c(Cl)cc(Br)cc21 (centres undefined)"
  readout.value: "-0.17%"
- molecule: "Cc1ccsc1C(=O)N1CCCc2c(c(=O)n(C)n2C)C1"
  readout.value: "-11%"

Please examine the following record next.
Let me know recorded cytotoxicity at 70.5 h for O=C(c1cnccn1)N1CCCC(Cn2cc(C3CCCC3)nn2)C1 (centres undefined) , thanks.
-10.8%
